- assay overview: Growth inhibition of mouse L1210/0 cells
- Format: functional, cell-based
Labelling field: enter fulfilled if recorded IC50 is less than 90 µg/mL. Enter not fulfilled if it equals or exceeds that cut-off.

Query: In the record for `O=c1ccn(C2CCCC2)c(=O)[nH]1` , is IC50 less than 90 µg/mL?
Reply: fulfilled

Query: Can you check `O=c1[nH]c(=O)n(C2CCCC2)cc1I` next?
Reply: not fulfilled

Query: Same lookup for `O=c1[nH]c(=O)n(C2CCCC2)cc1Cl` , please.
Reply: not fulfilled

Query: Queued: `Cc1cn(C2CCCC2)c(=O)[nH]c1=O`
Reply: fulfilled

Query: Would you kindly repeat that for `O=c1[nH]c(=O)n(C2CCCC2)cc1F` ?
Reply: fulfilled

Query: Now give it for `O=c1[nH]c(=O)n(C2CCCC2)cc1Br` too.
Reply: fulfilled
